Cited source for all entries: the Immune Epitope Database (IEDB)

# MEASUREMENT_TARGET: HLA-B*46:01
# PROTOCOL_TEXT: IEDB peptide-MHC binding, purified MHC/direct/fluorescence; filed as Kd, often an IC50 or EC50 that approximates it; bounds were set here for any values at or beyond the usual limits of such assays
# TEST_CONTEXT: source organism: Bacillus anthracis
OBSERVABLE: Kd

input: Name the recorded Kd for SQMPPQKIM .
output: ≥ 20 µM

====

# MEASUREMENT_TARGET: HLA-A*02:01
# PROTOCOL_TEXT: IEDB peptide-MHC binding, purified MHC/competitive/fluorescence; filed as Kd, often an IC50 or EC50 that approximates it; bounds were set here for any values at or beyond the usual limits of such assays
# TEST_CONTEXT: source organism: Human immunodeficiency virus type 1 BH10
OBSERVABLE: Kd (nM)
Answers are plain numbers, in nM.

input: Give the measured Kd of LLQLTVWGI .
output: 19

====

# MEASUREMENT_TARGET: HLA-A*31:01
# PROTOCOL_TEXT: IEDB peptide-MHC binding, purified MHC/direct/fluorescence; filed as Kd, often an IC50 or EC50 that approximates it; bounds were set here for any values at or beyond the usual limits of such assays
# TEST_CONTEXT: source organism: Vibrio cholerae
pKd: −log10 of the molar value.
Give pKd for every item shown.

- SEQUENCE: "IPISGRITA"
  RESULT: "≤ 4.70"

Let's switch to this sequence now.
input: I'd like to know its pKd. The sequence in question is KEDPGDHIF
output: ≤ 4.70

====

# MEASUREMENT_TARGET: HLA-A*02:01
# PROTOCOL_TEXT: IEDB peptide-MHC binding, purified MHC/competitive/radioactivity; bounds were set here for any values at or beyond the usual limits of such assays
# TEST_CONTEXT: source organism: Homo sapiens
OBSERVABLE: IC50
The reply should consist of the numeric value with the unit placed after it.

Example entries and their recorded answers appear below.
- SEQUENCE: "LLDVPTAAV"
  RESULT: "10 nM"
- SEQUENCE: "YLDSGIHSGA"
  RESULT: "83.5 nM"

// moving on: another record for IC50
input: Lab note: need IC50 for CQWGRLWQL on HLA-A*02:01, anyone have it?
output: 1420 nM

====

# MEASUREMENT_TARGET: HLA-B*15:17
# PROTOCOL_TEXT: IEDB peptide-MHC binding, purified MHC/competitive/fluorescence; filed as Kd, often an IC50 or EC50 that approximates it; bounds were set here for any values at or beyond the usual limits of such assays
# TEST_CONTEXT: source organism: Canarypox virus
pKd: −log10 of the molar value.
OBSERVABLE: pKd

input: Recorded pKd for YMMDGNECP , please?
output: ≤ 4.70

====

# MEASUREMENT_TARGET: HLA-A*68:01
# PROTOCOL_TEXT: IEDB peptide-MHC binding, purified MHC/competitive/radioactivity; filed as Kd, often an IC50 or EC50 that approximates it; bounds were set here for any values at or beyond the usual limits of such assays
# TEST_CONTEXT: source organism: Lassa virus GA391
OBSERVABLE: Kd (nM)
One number for each entry, in nM.

input: Any idea what its Kd is? The sequence is ENAVWDQFK
output: 250
